Molecular target: GTPase KRas (Homo sapiens, UniProt P01116, G12C)
Sequence (P01116 whole entry G12C): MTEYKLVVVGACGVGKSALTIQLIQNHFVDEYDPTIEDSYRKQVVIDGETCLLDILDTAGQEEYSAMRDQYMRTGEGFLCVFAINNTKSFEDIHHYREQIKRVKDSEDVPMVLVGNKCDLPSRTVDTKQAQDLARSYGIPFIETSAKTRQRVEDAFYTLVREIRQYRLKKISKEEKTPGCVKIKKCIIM
Test: Inhibition of KRAS G12C mutant in human NCI-H358 cells assessed as increase in accumulation of GDP bound KRAS G12C mutant protein incubated for 6 hrs
Format: cell-based
Metric name: pIC50
Please note pIC50 is a logarithmic value: minus log10 of concentration in mol/L. Answer with that number alone.

Please give measured pIC50 of the following entry: "C=CC(=O)N1CCN(c2nc(OC[C@H]3CCCN3C)nc3c2C[C@@H](C)[C@H](c2c(C)ccc4[nH]ncc24)C3)CC1" 6.89

----------
Biological target: GTPase KRas (Homo sapiens, UniProt P01116, G12C)
Experiment: Inhibition of KRAS G12C mutant in human MIAPaCa2 cells assessed as increase in accumulation of GDP bound KRAS G12C mutant protein incubated for 6 hrs
Assay type: cell-based
# key: entry, value: pIC50
The quantity pIC50 is defined as the negative base-10 logarithm of the molar concentration.

C=CC(=O)N1CCN(c2ncnc3c2CCC(c2c(C)ccc4[nH]ncc24)C3)[C@@H](C)C1 (some centres not stated)
5.31

Now, please, on to the next compound.
Give pIC50 for "C=CC(=O)N1CCN(c2nc(OC[C@H]3CCCN3C)nc3c2C[C@@H](C)[C@H](c2c(C)ccc4[nH]ncc24)C3)CC1" tested on GTPase KRas (Homo sapiens, UniProt P01116, G12C). 6.63

Reference for the values: ChEMBL document CHEMBL4364352
